Quick list: log10 half-life per entry.
Assay: Half life of compound in HEPES buffer measured at pH 7.5 and 30 DegC by HPLC analysis
Type: physicochemical
Lab note - half-life converted to log10 from values in h.

Worked set:
| MOLECULE | OBSERVED VALUE |
| --- | --- |
| CC(OC(=O)[C@H](C)NC(=O)c1cc(O)c(O)c(C(=O)N[C@H]2COC(=O)[C@@H](NC(=O)c3cccc(O)c3O)COC(=O)[C@@H](NC(=O)c3cccc(O)c3O)COC2=O)c1)OC(=O)N1CCN(c2cc3c(cc2F)c(=O)c(C(=O)O)cn3C2CC2)CC1 (stereo partly drawn) | 0.91 |
| CNCC(=O)OC(C)OC(=O)N1CCN(c2cc3c(cc2F)c(=O)c(C(=O)O)cn3C2CC2)CC1 (stereo not drawn) | 0.20 |

Field request: log10 half-life | item: O=C(NCCCCCC(=O)N1CCN(c2cc3c(cc2F)c(=O)c(C(=O)O)cn3C2CC2)CC1)c1cc(O)c(O)c(C(=O)N[C@H]2COC(=O)[C@@H](NC(=O)c3cccc(O)c3O)COC(=O)[C@@H](NC(=O)c3cccc(O)c3O)COC2=O)c1
0.94

// query: CNCC(=O)OCOC(=O)N1CCN(c2cc3c(cc2F)c(=O)c(C(=O)O)cn3C2CC2)CC1
-0.46

Follow-up entry: CN[C@H](C(=O)OC(C)OC(=O)N1CCN(c2cc3c(cc2F)c(=O)c(C(=O)O)cn3C2CC2)CC1)C(C)C (stereo partly drawn)
0.38

Try the molecule CC(OC(=O)[C@@H](NC(=O)c1cc(O)c(O)c(C(=O)N[C@H]2COC(=O)[C@@H](NC(=O)c3cccc(O)c3O)COC(=O)[C@@H](NC(=O)c3cccc(O)c3O)COC2=O)c1)C(C)C)OC(=O)N1CCN(c2cc3c(cc2F)c(=O)c(C(=O)O)cn3C2CC2)CC1 (stereo partly drawn)
1.00

====

Assay: Drug degradation in HEPES buffer assessed as decomposition measured at pH 7.5 and 30 DegC after 21 hrs by HPLC analysis
Assay type: physicochemical
Conditions: read-out: Drug degradation
METRIC NAME: degraded at 21 h (%)
A number alone suffices; assume %.

| COMPOUND | OUTPUT UNIT | OBSERVED VALUE |
| --- | --- | --- |
| CC(OC(=O)[C@H](C)NC(=O)c1ccccc1)OC(=O)N1CCN(c2cc3c(cc2F)c(=O)c(C(=O)O)cn3C2CC2)CC1 (some centres not stated) | % | 20 |

Consider the compound shown here: CC(OC(=O)[C@@H](NC(=O)c1ccccc1)C(C)C)OC(=O)N1CCN(c2cc3c(cc2F)c(=O)c(C(=O)O)cn3C2CC2)CC1 (some centres not stated) What is its recorded degraded at 21 h?
10
